Catalogue of compounds with associated Plant response rating, Foxtail, Giant
- Test system: giant foxtail
- assay.comment: Test A pre-/postemergence greenhouse test
- Assay type: in vivo, Setaria faberi
- cond: Postemergence, 125 g ai/ha; 0 to 100 scale where 0 is no effect and 100 is complete control
Field format: numeric only.

compound	Plant response rating, Foxtail, Giant
Cn1nc(C(F)(F)F)c(C[S+]([O-])c2ccc(Cl)c[n+]2[O-])c1OCC(F)(F)F (racemic)	90

Task: Given the entry Cn1nc(C(F)(F)F)c(C[S+]([O-])c2ccc(Cl)c[n+]2[O-])c1OCC(F)(F)C(F)(F)F (stereo not drawn) , report its measured Plant response rating, Foxtail, Giant.
Output: 80

Task: Bench note: what Plant response rating, Foxtail, Giant did `CCCc1cc[n+]([O-])c(S(=O)(=O)Cc2c(C(F)(F)F)nn(C)c2OC(F)F)c1` show?
Output: 70

Task: May I ask what Plant response rating, Foxtail, Giant has been recorded for CCc1cc[n+]([O-])c([S+]([O-])Cc2c(C(F)(F)F)nn(C)c2OC(F)F)c1 (stereo not drawn) ?
Output: 80

Cited source: patent US20100298141A1
